B1: ZNF449 (parent)
chain: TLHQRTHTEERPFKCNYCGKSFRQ

Variants of: B1
PROTOCOL_NOTES: protein stability index of a GFP-peptide fusion (GPS, HEK-293T) (PSI 1-6); higher = more stable;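 also: lentivirally expressed fusions sorted by FACS into six bins by GFP to DsRed ratio, PSI derived from sequencing read proportions per bin multiplied by bin number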
MEASUREMENT_SETUP: c terminus: a fixed tail appended
ENDPOINT: protein stability index
Just the number, please.

Please review the following examples before continuing.
- MUTATION_SPEC: "R11P"
  protein stability index: 2.12
- MUTATION_SPEC: "H7I"
  protein stability index: 2.37
- MUTATION_SPEC: "K14W"
  protein stability index: 2.1
- MUTATION_SPEC: "N16R"
  protein stability index: 1.65
- MUTATION_SPEC: "T8V"
  protein stability index: 2.59

Look up protein stability index: `L2K`
2.74

For `R5H` , what is its reported protein stability index?
2.73

# lookup: protein stability index of `P12Q`
2.79

protein stability index lookup needed for `E10I` , thanks.
3.39

What value of protein stability index has been recorded for this entry: `T6A`
2.38

Entry under review: `R11D` . Reported protein stability index?
3.19

Give its protein stability index value. Item: `C18K`
3.12

protein stability index lookup needed for `Q4Y` , thanks.
2.03

Item `S21P` has what recorded protein stability index?
2.15

Quick check: protein stability index of `Y17P` ?
2.98

# lookup: protein stability index of `F13N`
3.54

Please look up its protein stability index: `F13K`
2.28

Recorded protein stability index for `R23A` , please?
2.69

Using the record for `T6H` , report its protein stability index.
1.55

Look up protein stability index: `R11W`
2.09

Field request: protein stability index | item: `Q4H`
1.73

Please look up its protein stability index: `P12G`
2.52

Which measured protein stability index value corresponds to `F13S` ?
2.26
